Answer each item with its documented IC50.
- MEASUREMENT_TARGET: Recombinant human factor D (Homo sapiens (Human))
- ASSAY_NAME: biochemical
- Type: biochemical
- CONDITION_PARAMETERS: read-out: IC50
Give bare numbers, in nM.

The cases that follow already have their IC50 on record.
compound=CC(=O)c1nn(CC(=O)N2[C@@H]3C[C@@H]3C[C@H]2C(=O)N[C@H]2C[C@H](O)CC(C)(C)C2)c2ccccc12 measured_result=10
compound="CC(=O)c1nn(CC(=O)N2[C@@H]3C[C@@H]3C[C@H]2C(=O)NC2CCCC(F)(F)C2)c2cnccc12 (stereo partly shown)" measured_result=1480

Each compound below has a reported value. Please supply its IC50.
1. Cc1nccc2c(C(N)=O)nn(CC(=O)N3[C@@H]4C[C@@H]4C[C@H]3C(=O)N[C@@H]3CCCC(C)(C)C3)c12
2. CC(=O)c1nn(CC(=O)N2[C@@H]3C[C@@H]3C[C@H]2C(=O)N[C@@H]2CCCC(C)(C)C2)c2ccc(OCc3ncccn3)cc12

1. 38
2. 11

###

- MEASUREMENT_TARGET: Recombinant human factor D (Homo sapiens (Human), UniProt P00746)
- Sequence (P00746 26-253): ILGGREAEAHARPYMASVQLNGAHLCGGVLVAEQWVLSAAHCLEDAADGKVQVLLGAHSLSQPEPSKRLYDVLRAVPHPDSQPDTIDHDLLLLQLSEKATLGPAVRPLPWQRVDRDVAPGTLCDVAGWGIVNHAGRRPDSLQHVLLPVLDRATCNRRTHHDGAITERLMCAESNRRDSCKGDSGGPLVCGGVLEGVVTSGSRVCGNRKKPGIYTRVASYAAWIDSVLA
- ASSAY_NAME: biochemical
- Format: biochemical
- CONDITION_PARAMETERS: Factor D inhibition data using Method 1; substrate Z-Lys-thiobenzyl, fluorescence readout; read-out: IC50
Label Y when IC50 is strictly below 800 nM; at or above that, label N.

As a guide, the following entries are already answered.
molecule="CC1(C)CCCC(NC(=O)[C@@H]2C[C@@]3(CO)C[C@H]3N2C(=O)Cn2nc(C(N)=O)c3ccccc32)C1 (stereo partly shown)" class_name=Y
molecule=CC1(C)CCC[C@@H](NC(=O)[C@@H]2C[C@@]3(CO)C[C@H]3N2C(=O)Cn2nc(C(N)=O)c3ccccc32)C1 class_name=Y
molecule=COC(=O)[C@@H]1CCC[C@H](NC(=O)[C@@H]2C[C@H]3C[C@H]3N2C(=O)Cn2nc(C(C)=O)c3cccnc32)C1 class_name=N

Bench note: check whether NC(=O)c1nn(CC(=O)N2[C@@H]3C[C@@H]3C[C@H]2C(=O)NC2CCCCC2(F)F)c2cnccc12 (stereo partly shown) shows IC50 below 800 nM
Y

Bench note: check whether Cc1ccc2c(c1)c(C(N)=O)nn2CC(=O)N1[C@@H]2C[C@@H]2C[C@H]1C(=O)N[C@@H]1CCCC(C)(C)C1 shows IC50 below 800 nM
Y

Bench note: check whether CC1(C)CCC[C@@H](NC(=O)[C@@H]2[C@@H]3C[C@@H]3CN2C(=O)Cn2nc(C(N)=O)c3ccncc32)C1 shows IC50 below 800 nM
Y

Bench note: check whether COC(=O)[C@@H]1CC[C@@H](NC(=O)[C@@H]2C[C@H]3C[C@H]3N2C(=O)Cn2nc(C(C)=O)c3cccnc32)C1 shows IC50 below 800 nM
N

###

- MEASUREMENT_TARGET: Recombinant human factor D (Homo sapiens (Human), UniProt P00746)
- ASSAY_NAME: biochemical
- Format: biochemical
- CONDITION_PARAMETERS: read-out: IC50
pIC50: −log10 of the molar value.
// bucketize pIC50: c1: < 6; c2: ≥ 6 and < 7; c3: ≥ 7

As a guide, the following entries are already answered.
compound=CC(=O)c1nn(CC(=O)N2[C@H](C(=O)N[C@@H]3CCCC(C)(C)C3)C[C@@]3(CO)C[C@@H]23)c2cnccc12 class_name=c3
compound=CC1(C)CCC[C@H](NC(=O)[C@@H]2[C@@H]3C[C@@H]3CN2C(=O)Cn2nc(C(N)=O)c3ccccc32)C1 class_name=c1
compound=C[C@H]1CCC[C@@H](NC(=O)[C@@H]2C[C@H]3C[C@H]3N2C(=O)Nc2cn(C(N)=O)c3ccccc23)C1 class_name=c3
compound=CC1(C)CCC[C@@H](NC(=O)[C@@H]2C[C@@H](F)CN2C(=O)Cn2nc(C(N)=O)c3ccncc32)C1 class_name=c3
compound="COC1CC(NC(=O)[C@@H]2C[C@H]3C[C@H]3N2C(=O)Cn2nc(C(N)=O)c3ccccc32)CC(C)(C)C1 (stereo partly shown)" class_name=c2

Which band does CC1(C)CCC[C@@H](NC(=O)[C@@H]2[C@@H]3C[C@@H]3CN2C(=O)Cn2nc(C(N)=O)c3ccccc32)C1 fall in?
c3

Which band does CO[C@@H]1C[C@@H](NC(=O)[C@@H]2C[C@H]3C[C@H]3N2C(=O)Cn2nc(C(N)=O)c3ccccc32)CC(C)(C)C1 fall in?
c2

Which band does CC(=O)c1nn(CC(=O)N2[C@@H]3C[C@@H]3C[C@H]2C(=O)NC2(CO)CCCCC2)c2cnccc12 fall in?
c1

Which band does CC(=O)c1nn(CC(=O)N2[C@@H]3C[C@@H]3C[C@H]2C(=O)NN2CCCC(C)(C)C2)c2ccc(OCc3ncccn3)cc12 fall in?
c3

Which band does Cc1cc2c(C(N)=O)nn(CC(=O)N3[C@@H]4C[C@@H]4C[C@H]3C(=O)NN3CCCC(C)(C)C3)c2cn1 fall in?
c3

Which band does CO[C@@H]1CCC[C@H](NC(=O)[C@@H]2C[C@H]3C[C@H]3N2C(=O)Cn2nc(C(C)=O)c3ccccc32)C1 fall in?
c1

###

Answer each item with its documented IC50.
- MEASUREMENT_TARGET: Recombinant human factor D (Homo sapiens (Human), UniProt P00746)
- ASSAY_NAME: biochemical
- Type: biochemical
- CONDITION_PARAMETERS: Factor D inhibition data using Method 1; substrate Z-Lys-thiobenzyl, fluorescence readout; read-out: IC50
Numbers only, in nM.

The cases that follow already have their IC50 on record.
compound=CC(=O)c1nn(CC(=O)N2[C@H](C(=O)N[C@H]3CCCC(C)(C)C3)C[C@@]3(CO)C[C@@H]23)c2ncccc12 observable=IC50 u=nM measured_result=1600
compound=Cc1cc2c(C(N)=O)nn(CC(=O)N3[C@@H]4C[C@@H]4C[C@H]3C(=O)N[C@@H]3CCC[C@H](C(F)(F)F)C3)c2cn1 observable=IC50 u=nM measured_result=118
compound="CC(=O)c1nn(CC(=O)N2[C@@H]3C[C@@H]3C[C@H]2C(=O)NC2CCOC(C)(C)C2)c2cnccc12 (stereo partly drawn)" observable=IC50 u=nM measured_result=1680
compound=CC(=O)c1nn(CC(=O)N2[C@@H]3C[C@@H]3C[C@H]2C(=O)NC2CC(F)(F)C2)c2cnccc12 observable=IC50 u=nM measured_result=2390

Each compound below has a reported value. Please supply its IC50.
1. CC(=O)c1nn(CC(=O)N2[C@@H]3C[C@@H]3C[C@H]2C(=O)NC2CCCC(OC(F)(F)F)C2)c2ccccc12 (stereo partly drawn)
2. CC(=O)c1nn(CC(=O)N2[C@@H]3C[C@@H]3C[C@H]2C(=O)NC2CC(C)(C)C2)c2cnccc12
3. CO[C@H]1[C@@H](C(=O)N[C@H]2CCCC(C)(C)C2)N(C(=O)Cn2nc(C(N)=O)c3ccccc32)C[C@@H]1F

1. 63
2. 204
3. 585

Each compound below has a reported value. Please supply its IC50.
1. CC(=O)c1nn(CC(=O)N2[C@@H]3C[C@@H]3C[C@H]2C(=O)NC2CC(C)(C)CC(C)(C)C2)c2ncccc12
2. NC(=O)n1cc(NC(=O)N2[C@@H]3C[C@@H]3C[C@H]2C(=O)N[C@@H]2C=CCCC2)c2ccccc21
3. CC1(C)CCC[C@@H](NC(=O)[C@@H]2C[C@H]3C[C@H]3N2C(=O)Cn2nc(C(N)=O)c3ccncc32)C1

1: 56; 2: 3150; 3: 37

###

- MEASUREMENT_TARGET: Recombinant human factor D (Homo sapiens (Human))
- ASSAY_NAME: biochemical
- Assay type: biochemical
- CONDITION_PARAMETERS: IC50, Factor D inhibition data using Method 1; substrate Z-Lys-thiobenzyl, fluorescence readout
Answer each item with its documented IC50.
Answers are plain numbers, in nM.

The cases that follow already have their IC50 on record.
compound="CC(=O)c1nn(CC(=O)N2[C@H](C(=O)NC3CCCC4(CC4)C3)C[C@@]3(CO)C[C@@H]23)c2cnccc12 (single isomer, unassigned) [Example 113]" measurement_target="Recombinant human factor D (Homo sapiens (Human))" observable=IC50 measured_result=90
compound="NC(=O)c1nn(CC(=O)N2C[C@H](F)C[C@H]2C(=O)NC2CCCC3(CC3)C2)c2ccccc12 (single isomer, unassigned) [Example 92]" measurement_target="Recombinant human factor D (Homo sapiens (Human))" observable=IC50 measured_result=2000
compound="CC1(C)CCC(NC(=O)[C@@H]2C[C@H]3C[C@H]3N2C(=O)Cn2nc(C(N)=O)c3ccncc32)C1 (single isomer, unassigned) [Example 68]" measurement_target="Recombinant human factor D (Homo sapiens (Human))" observable=IC50 measured_result=1920
compound="CC1(C)CCC(NC(=O)[C@@H]2C[C@H]3C[C@H]3N2C(=O)Cn2nc(C(N)=O)c3ccncc32)C1 (single isomer, unassigned) [Example 67]" measurement_target="Recombinant human factor D (Homo sapiens (Human))" observable=IC50 measured_result=318
compound="NC(=O)c1nn(CC(=O)N2[C@@H]3C[C@@H]3C[C@H]2C(=O)NC2CCCC3(CC3)C2)c2ccccc12 (single isomer, unassigned) [Example 57]" measurement_target="Recombinant human factor D (Homo sapiens (Human))" observable=IC50 measured_result=1930
compound="NC(=O)c1nn(CC(=O)N2[C@@H]3C[C@@H]3C[C@H]2C(=O)NC2CCCC3(CC3)C2)c2ccccc12 (single isomer, unassigned) [Example 58]" measurement_target="Recombinant human factor D (Homo sapiens (Human))" observable=IC50 measured_result=41
compound="CC(=O)c1nn(CC(=O)N2[C@H](C(=O)NC3CCCC4(CC4)C3)C[C@@]3(CO)C[C@@H]23)c2cnccc12 (single isomer, unassigned) [Example 114]" measurement_target="Recombinant human factor D (Homo sapiens (Human))" observable=IC50 measured_result=1280
compound="COC1(C(F)(F)F)CCCC(NC(=O)[C@@H]2C[C@H]3C[C@H]3N2C(=O)Cn2nc(C(N)=O)c3ccccc32)C1 (single isomer, unassigned) [Example 39]" measurement_target="Recombinant human factor D (Homo sapiens (Human))" observable=IC50 measured_result=85

Each compound below has a reported value. Please supply its IC50.
1. COC1(C(F)(F)F)CCCC(NC(=O)[C@@H]2C[C@H]3C[C@H]3N2C(=O)Cn2nc(C(N)=O)c3ccccc32)C1 (single isomer, unassigned) [Example 40]
2. NC(=O)c1nn(CC(=O)N2C[C@H](F)C[C@H]2C(=O)NC2CCCC3(CC3)C2)c2ccccc12 (single isomer, unassigned) [Example 93]

1: 4470; 2: 92
